System: STAT5 phosphorylation by IL-2 in HT-2 cells
ASSAY DETAILS: STAT5 phosphorylation by IL-2 in HT-2 cells (HTRF)
Type: cell-based
CONDITION DESCRIPTION: HT-2 cells, IL-2 50 U/ml, pSTAT5 HTRF; read-out: Cell Based Assay (μM) HT-2/IL-2/pSTAT5
MEASURED ENDPOINT: IC50 (µM)

CNCCC(c1ccc(-n2cc(-c3ccnc4[nH]cnc34)cn2)nc1)C(F)(F)F (stereo not drawn) [Example 1198]	0.6
CNCCC(c1ccc(-n2cc(-c3ccnc4[nH]cnc34)cn2)nc1)C(F)(F)F (stereo not drawn) [Example 1200]	0.6

---

Quick reference: IC50 of the listed items.
TARGET: Recombinant TYK2 (Homo sapiens)
Construct: purchased Carna Biosciences
Sequence (P29597 whole entry): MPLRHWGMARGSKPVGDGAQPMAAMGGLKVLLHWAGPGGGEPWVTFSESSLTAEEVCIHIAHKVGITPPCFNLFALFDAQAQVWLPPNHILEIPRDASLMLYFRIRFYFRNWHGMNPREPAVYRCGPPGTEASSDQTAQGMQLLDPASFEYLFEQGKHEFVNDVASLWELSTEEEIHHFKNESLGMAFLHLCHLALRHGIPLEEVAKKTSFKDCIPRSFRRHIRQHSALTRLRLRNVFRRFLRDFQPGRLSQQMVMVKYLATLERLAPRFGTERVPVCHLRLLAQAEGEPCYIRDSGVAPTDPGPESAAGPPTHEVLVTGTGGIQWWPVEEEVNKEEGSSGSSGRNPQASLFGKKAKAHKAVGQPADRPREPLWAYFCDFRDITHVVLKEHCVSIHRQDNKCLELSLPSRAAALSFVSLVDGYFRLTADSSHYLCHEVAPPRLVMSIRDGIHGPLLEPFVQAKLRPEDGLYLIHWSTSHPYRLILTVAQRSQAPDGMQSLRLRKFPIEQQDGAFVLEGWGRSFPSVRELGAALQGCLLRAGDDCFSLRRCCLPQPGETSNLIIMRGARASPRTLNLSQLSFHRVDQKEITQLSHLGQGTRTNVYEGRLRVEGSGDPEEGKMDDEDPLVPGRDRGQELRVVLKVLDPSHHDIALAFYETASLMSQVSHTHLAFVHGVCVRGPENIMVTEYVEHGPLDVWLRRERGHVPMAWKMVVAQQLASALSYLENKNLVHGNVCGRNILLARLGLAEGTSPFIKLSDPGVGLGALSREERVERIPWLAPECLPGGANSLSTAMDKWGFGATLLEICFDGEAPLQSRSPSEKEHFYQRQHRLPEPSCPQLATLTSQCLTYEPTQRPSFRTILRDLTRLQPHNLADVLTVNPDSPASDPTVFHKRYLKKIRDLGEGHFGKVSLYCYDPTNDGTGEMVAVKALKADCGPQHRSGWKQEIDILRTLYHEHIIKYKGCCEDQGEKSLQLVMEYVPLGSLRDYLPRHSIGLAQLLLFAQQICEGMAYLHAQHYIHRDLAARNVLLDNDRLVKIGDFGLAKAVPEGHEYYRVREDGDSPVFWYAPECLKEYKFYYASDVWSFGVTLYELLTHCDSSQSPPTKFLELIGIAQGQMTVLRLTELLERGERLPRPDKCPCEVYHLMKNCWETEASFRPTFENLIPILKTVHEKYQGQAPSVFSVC
ASSAY DETAILS: JAK biochemical assay (LANCE Ultra TR-FRET), TYK2
CONDITION DESCRIPTION: recombinant TYK2, TR-FRET; read-out: Biochemical Assay (μM) TYK2

O=C(NCC(F)(F)F)N1CCN(c2ccnc3[nH]c(=O)[nH]c23)CC1	> 1 µM
N#CC1CN(C(=O)c2ccc(-n3cc(-c4ccnc5[nH]cnc45)cn3)nc2)C1	> 1 µM
N#CCOC(c1ccc(-n2cc(-c3ccnc4[nH]cnc34)cn2)nc1)C(F)(F)F (centres unmarked)	> 0.5 µM
O=C(Nc1ccncc1)N1CCN(c2ccnc3[nH]c(=O)[nH]c23)CC1	> 1 µM
FC(F)(F)[C@H](c1ccc(-n2cc(-c3ccnc4[nH]cnc34)cn2)nc1)C1COC1 (single isomer, unassigned)	> 1 µM

Problem: Record request: IC50 value, item N#CCC(NC(=O)n1cc(-c2ccnc3[nH]c(=O)[nH]c23)cn1)C1CCOCC1 (centres unmarked)
Result: < 0.5 µM

Problem: Same question for O=C(NCC(F)(F)F)Nc1ccc(-c2ccnc3[nH]c(=O)[nH]c23)cc1 please.
Result: 0.182 µM

Problem: Same question for FC(F)(F)C(c1ccc(-n2cc(-c3ccnc4[nH]cnc34)cn2)nc1)C1COC1 (centres unmarked) please.
Result: > 1 µM

---

TARGET: Recombinant JAK2 (Homo sapiens, UniProt O60674)
Construct: purchased Carna Biosciences
Sequence (O60674 whole entry): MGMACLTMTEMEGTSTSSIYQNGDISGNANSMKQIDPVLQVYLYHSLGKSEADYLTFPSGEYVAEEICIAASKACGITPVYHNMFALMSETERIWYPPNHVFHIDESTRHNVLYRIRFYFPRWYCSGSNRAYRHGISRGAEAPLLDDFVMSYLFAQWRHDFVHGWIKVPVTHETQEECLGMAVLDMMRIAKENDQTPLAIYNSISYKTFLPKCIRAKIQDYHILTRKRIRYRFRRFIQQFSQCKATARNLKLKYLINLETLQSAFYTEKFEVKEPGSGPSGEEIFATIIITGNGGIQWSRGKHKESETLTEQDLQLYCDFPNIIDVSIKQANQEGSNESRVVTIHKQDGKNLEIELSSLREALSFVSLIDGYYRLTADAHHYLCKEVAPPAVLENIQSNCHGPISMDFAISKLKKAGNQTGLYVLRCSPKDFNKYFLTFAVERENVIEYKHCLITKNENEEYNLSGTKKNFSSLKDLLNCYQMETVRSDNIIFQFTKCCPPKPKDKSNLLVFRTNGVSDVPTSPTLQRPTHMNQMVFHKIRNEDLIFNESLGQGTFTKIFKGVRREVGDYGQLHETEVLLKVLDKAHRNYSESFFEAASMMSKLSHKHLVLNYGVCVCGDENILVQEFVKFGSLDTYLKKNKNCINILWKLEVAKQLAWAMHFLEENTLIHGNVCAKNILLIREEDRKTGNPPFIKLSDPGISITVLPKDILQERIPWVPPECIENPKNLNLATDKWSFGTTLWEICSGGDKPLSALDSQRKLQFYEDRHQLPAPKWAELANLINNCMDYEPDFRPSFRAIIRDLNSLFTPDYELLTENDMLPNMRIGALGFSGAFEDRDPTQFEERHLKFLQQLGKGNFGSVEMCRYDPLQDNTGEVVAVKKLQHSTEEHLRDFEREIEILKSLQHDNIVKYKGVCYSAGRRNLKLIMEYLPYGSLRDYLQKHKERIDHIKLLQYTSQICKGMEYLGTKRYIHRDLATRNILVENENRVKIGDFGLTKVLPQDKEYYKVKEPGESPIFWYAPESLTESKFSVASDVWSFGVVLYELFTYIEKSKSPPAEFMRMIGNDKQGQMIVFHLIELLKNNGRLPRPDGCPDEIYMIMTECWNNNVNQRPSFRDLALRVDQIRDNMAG
ASSAY DETAILS: JAK biochemical assay (LANCE Ultra TR-FRET), JAK2
CONDITION DESCRIPTION: recombinant JAK2, TR-FRET; read-out: Biochemical Assay (μM) JAK2
MEASURED ENDPOINT: IC50

Consider the following illustrative entries.
O=C(CN1CCN(c2ccnc3[nH]c(=O)[nH]c23)CC1)NCC(F)(F)F	> 10 µM
CC(C(N)=O)c1ccc(-n2cc(-c3ccnc4[nH]cnc34)cn2)nc1 (centres unmarked)	> 0.5 µM
N#CCc1ccc(-n2cc(-c3ccnc4[nH]cnc34)cn2)cc1F	< 0.5 µM
N#CC1CN(CCC(c2ccc(-n3cc(-c4ccnc5[nH]cnc45)cn3)nc2)C(F)(F)F)C1 (centres unmarked)	> 0.1 µM
CC(C)C(=O)NCCC(c1ccc(-n2cc(-c3ccnc4[nH]cnc34)cn2)nc1)C(F)(F)F (centres unmarked)	0.06 µM
CS(=O)(=O)COC(c1ccc(-n2cc(-c3ccnc4[nH]cnc34)cn2)nc1)C(F)(F)F (centres unmarked)	< 0.1 µM
CNCCOC(c1ccc(-n2cc(-c3ccnc4[nH]cnc34)cn2)nc1)C(F)(F)F (centres unmarked)	< 0.1 µM

Kindly consider the entry below.
Problem: Record request: IC50 value, item CC(C#N)c1ccc(-n2cc(-c3ccnc4[nH]cnc34)cn2)nc1 (centres unmarked)
Result: > 0.1 µM
